Molecular target: Trypanothione reductase (Trypanosoma cruzi) (UniProt P28593)
Sequence (P28593 whole entry, looked up): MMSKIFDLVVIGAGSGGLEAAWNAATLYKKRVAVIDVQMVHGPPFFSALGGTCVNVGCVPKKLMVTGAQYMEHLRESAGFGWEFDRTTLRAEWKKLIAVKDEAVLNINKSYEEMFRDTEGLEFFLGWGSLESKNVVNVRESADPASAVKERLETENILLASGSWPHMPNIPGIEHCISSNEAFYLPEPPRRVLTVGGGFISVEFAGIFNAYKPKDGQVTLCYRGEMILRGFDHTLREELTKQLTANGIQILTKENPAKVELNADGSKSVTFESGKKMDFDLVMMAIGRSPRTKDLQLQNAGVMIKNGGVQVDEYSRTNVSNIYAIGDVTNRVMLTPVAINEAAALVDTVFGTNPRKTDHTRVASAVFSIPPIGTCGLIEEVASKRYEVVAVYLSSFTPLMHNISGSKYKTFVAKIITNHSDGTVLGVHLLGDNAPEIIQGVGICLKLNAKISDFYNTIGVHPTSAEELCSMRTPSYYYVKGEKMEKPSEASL
Assay: Inhibition of Trypanosoma cruzi trypanothione reductase assessed as reduction in NADPH consumption at 10 uM using 100 uM trypanothione disulfide as substrate by spectrophotometric method
Property Name: inhibition (%)

{"Structure String": "O=C1C=C(Oc2ccccc2)C(=O)c2ccccc21", "U": "%", "inhibition": 29}
{"Structure String": "COc1cccc2c1C(=O)c1c(oc3c1c(=O)oc1ccccc13)C2=O", "U": "%", "inhibition": 8.1}
{"Structure String": "CC(=O)Oc1cccc2c1C(=O)c1c(oc3c1c(=O)oc1ccccc13)C2=O", "U": "%", "inhibition": 37}

a. O=C1c2oc3c(c2C(=O)c2cccc(O)c21)c(=O)oc1ccccc13
b. O=C1c2cc3ccccc3cc2C(=O)c2c1oc1c2c(=O)oc2ccccc21
// compare measured inhibition, left a , right b , return larger Reply briefly: the label of your chosen item.
a

* * *

Target: CYP1A2 (Homo sapiens)
Sequence (P05177 whole entry): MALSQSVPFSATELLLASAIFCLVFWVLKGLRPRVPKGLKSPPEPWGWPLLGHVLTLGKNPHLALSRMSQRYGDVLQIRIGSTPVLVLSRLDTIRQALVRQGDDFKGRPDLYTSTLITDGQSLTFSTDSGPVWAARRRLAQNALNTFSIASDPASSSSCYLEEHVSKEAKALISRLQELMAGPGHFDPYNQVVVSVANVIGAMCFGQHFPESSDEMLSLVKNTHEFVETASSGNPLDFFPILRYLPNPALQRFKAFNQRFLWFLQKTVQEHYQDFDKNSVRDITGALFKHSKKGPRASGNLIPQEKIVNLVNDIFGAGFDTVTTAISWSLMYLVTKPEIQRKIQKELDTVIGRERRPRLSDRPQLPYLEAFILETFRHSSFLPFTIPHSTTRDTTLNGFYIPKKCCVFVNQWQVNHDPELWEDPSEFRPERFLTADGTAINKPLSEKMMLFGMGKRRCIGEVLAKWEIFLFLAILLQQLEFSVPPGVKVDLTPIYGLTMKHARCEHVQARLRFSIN
Assay: Inhibition of human CYP1A2 at 10 uM by P450-Glo assay relative to control
Format: ADME
Property Name: inhibition at 10 µM (%)

{"Structure String": "CC(=O)Oc1cccc2c1C(=O)c1c(oc3c1c(=O)oc1ccccc13)C2=O", "Property Name": "inhibition at 10 µM", "Measured Value": 94.6}
{"Structure String": "Nc1ccc2oc(=O)c3c4c(oc3c2c1)C(=O)c1c(O)cccc1C4=O", "Property Name": "inhibition at 10 µM", "Measured Value": 37.8}
{"Structure String": "COc1cccc2c1C(=O)c1oc3c(c1C2=O)c(=O)oc1ccccc13", "Property Name": "inhibition at 10 µM", "Measured Value": 99.2}
{"Structure String": "CC(=O)Oc1cccc2c1C(=O)c1oc3c(c1C2=O)c(=O)oc1ccccc13", "Property Name": "inhibition at 10 µM", "Measured Value": 93.5}
{"Structure String": "O=C1c2cccc(O)c2C(=O)c2c1oc1c2c(=O)oc2ccccc21", "Property Name": "inhibition at 10 µM", "Measured Value": 40.8}

A. O=C1c2cc3ccccc3cc2C(=O)c2c1oc1c2c(=O)oc2ccccc21
B. COc1cccc2c1C(=O)c1c(oc3c1c(=O)oc1ccccc13)C2=O
// compare measured inhibition at 10 µM, left A , right B , return larger Reply briefly: the label of your chosen item.
B

* * *

Target: CYP2C19 (Homo sapiens)
Sequence (P33261 whole entry): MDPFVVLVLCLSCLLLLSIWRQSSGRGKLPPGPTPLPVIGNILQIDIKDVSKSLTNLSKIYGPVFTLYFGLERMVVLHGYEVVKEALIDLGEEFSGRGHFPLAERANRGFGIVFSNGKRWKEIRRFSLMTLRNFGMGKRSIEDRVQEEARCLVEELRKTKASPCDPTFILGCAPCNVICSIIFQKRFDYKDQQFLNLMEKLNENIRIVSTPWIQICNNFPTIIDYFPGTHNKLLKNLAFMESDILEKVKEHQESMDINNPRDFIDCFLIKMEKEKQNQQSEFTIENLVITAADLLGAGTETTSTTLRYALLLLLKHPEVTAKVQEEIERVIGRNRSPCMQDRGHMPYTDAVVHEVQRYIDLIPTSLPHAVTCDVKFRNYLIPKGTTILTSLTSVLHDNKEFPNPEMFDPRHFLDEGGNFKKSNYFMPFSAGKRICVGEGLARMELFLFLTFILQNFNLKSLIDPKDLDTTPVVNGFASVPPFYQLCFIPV
Test: Inhibition of human CYP2C19 at 10 uM by P450-Glo assay relative to control
Assay type: ADME
Property Name: inhibition at 10 µM (%)

Here are 7 molecules together with their reported answers.
{"Structure String": "O=C1c2cccc(O)c2C(=O)c2c1oc1c2c(=O)oc2ccccc21", "Property Name": "inhibition at 10 µM", "Measured Value": 83.8}
{"Structure String": "O=C1c2cc3ccccc3cc2C(=O)c2c1oc1c2c(=O)oc2ccccc21", "Property Name": "inhibition at 10 µM", "Measured Value": 35.7}
{"Structure String": "Nc1ccc2oc(=O)c3c4c(oc3c2c1)C(=O)c1c(O)cccc1C4=O", "Property Name": "inhibition at 10 µM", "Measured Value": 63.6}
{"Structure String": "COc1cccc2c1C(=O)c1c(oc3c1c(=O)oc1ccccc13)C2=O", "Property Name": "inhibition at 10 µM", "Measured Value": 71}
{"Structure String": "COc1cccc2c1C(=O)c1oc3c(c1C2=O)c(=O)oc1ccccc13", "Property Name": "inhibition at 10 µM", "Measured Value": 55.5}
{"Structure String": "CC(=O)Oc1cccc2c1C(=O)c1oc3c(c1C2=O)c(=O)oc1ccccc13", "Property Name": "inhibition at 10 µM", "Measured Value": 109}
{"Structure String": "CC(=O)Oc1cccc2c1C(=O)c1c(oc3c1c(=O)oc1ccccc13)C2=O", "Property Name": "inhibition at 10 µM", "Measured Value": 103}

I. O=C1c2oc3c(c2C(=O)c2cccc(O)c21)c(=O)oc1ccccc13
II. O=C1c2ccccc2C(=O)c2c1oc1c2c(=O)oc2ccccc21
// compare measured inhibition at 10 µM, left I , right II , return larger Reply briefly: the label of your chosen item.
I
(I: 107%, II: 46.1%)
